# Measured On: T1, TNFR1 (Homo sapiens, UniProt P19438)
# T1 chain: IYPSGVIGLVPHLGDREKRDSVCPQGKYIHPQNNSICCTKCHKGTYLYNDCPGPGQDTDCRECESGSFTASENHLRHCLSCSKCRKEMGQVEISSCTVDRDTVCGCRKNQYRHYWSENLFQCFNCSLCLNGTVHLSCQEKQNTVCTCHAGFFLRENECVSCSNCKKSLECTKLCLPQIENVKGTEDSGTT
# Protocol: yeast display SC50
Parameter: apparent Kd (screen). Scope: all listed entries.
Measurement Type: apparent Kd (screen) (nM)

Binder | Measurement Type | Measured
E92H (designed binder) SMEEEVEKAAKEYEKKKKEAIEKHLEKLKAKDKEAAERFLKELEEAAKEYAKDEAKTMSEEEAKRRAKKYKEKVLLSELSEEEQKEIKEAEHKLVRTILKYVEEAAK | apparent Kd (screen) | 3
L43D (designed binder) SMEEEVEKAAKEYEKKKKEAIEKHLEKLKAKDKEAAERFLKEDEEAAKEYAKDEAKTMSEEEAKRRAKKYKEKVLLSELSEEEQKEIKEAEEKLVRTILKYVEEAAK | apparent Kd (screen) | 6.43
K8M (designed binder) SMEEEVEMAAKEYEKKKKEAIEKHLEKLKAKDKEAAERFLKELEEAAKEYAKDEAKTMSEEEAKRRAKKYKEKVLLSELSEEEQKEIKEAEEKLVRTILKYVEEAAK | apparent Kd (screen) | 1.05
D53Y (designed binder) SMEEEVEKAAKEYEKKKKEAIEKHLEKLKAKDKEAAERFLKELEEAAKEYAKYEAKTMSEEEAKRRAKKYKEKVLLSELSEEEQKEIKEAEEKLVRTILKYVEEAAK | apparent Kd (screen) | 2.73
A90V (designed binder) SMEEEVEKAAKEYEKKKKEAIEKHLEKLKAKDKEAAERFLKELEEAAKEYAKDEAKTMSEEEAKRRAKKYKEKVLLSELSEEEQKEIKEVEEKLVRTILKYVEEAAK | apparent Kd (screen) | 1.27
K69I (designed binder) SMEEEVEKAAKEYEKKKKEAIEKHLEKLKAKDKEAAERFLKELEEAAKEYAKDEAKTMSEEEAKRRAKIYKEKVLLSELSEEEQKEIKEAEEKLVRTILKYVEEAAK | apparent Kd (screen) | 0.446
K71L (designed binder) SMEEEVEKAAKEYEKKKKEAIEKHLEKLKAKDKEAAERFLKELEEAAKEYAKDEAKTMSEEEAKRRAKKYLEKVLLSELSEEEQKEIKEAEEKLVRTILKYVEEAAK | apparent Kd (screen) | 0.653
I87K (designed binder) SMEEEVEKAAKEYEKKKKEAIEKHLEKLKAKDKEAAERFLKELEEAAKEYAKDEAKTMSEEEAKRRAKKYKEKVLLSELSEEEQKEKKEAEEKLVRTILKYVEEAAK | apparent Kd (screen) | 9.41
R96I (designed binder) SMEEEVEKAAKEYEKKKKEAIEKHLEKLKAKDKEAAERFLKELEEAAKEYAKDEAKTMSEEEAKRRAKKYKEKVLLSELSEEEQKEIKEAEEKLVITILKYVEEAAK | apparent Kd (screen) | 0.718
K69M (designed binder) SMEEEVEKAAKEYEKKKKEAIEKHLEKLKAKDKEAAERFLKELEEAAKEYAKDEAKTMSEEEAKRRAKMYKEKVLLSELSEEEQKEIKEAEEKLVRTILKYVEEAAK | apparent Kd (screen) | 0.49
E60L (designed binder) SMEEEVEKAAKEYEKKKKEAIEKHLEKLKAKDKEAAERFLKELEEAAKEYAKDEAKTMSLEEAKRRAKKYKEKVLLSELSEEEQKEIKEAEEKLVRTILKYVEEAAK | apparent Kd (screen) | 0.446
E103T (designed binder) SMEEEVEKAAKEYEKKKKEAIEKHLEKLKAKDKEAAERFLKELEEAAKEYAKDEAKTMSEEEAKRRAKKYKEKVLLSELSEEEQKEIKEAEEKLVRTILKYVTEAAK | apparent Kd (screen) | 0.718
V6N (designed binder) SMEEENEKAAKEYEKKKKEAIEKHLEKLKAKDKEAAERFLKELEEAAKEYAKDEAKTMSEEEAKRRAKKYKEKVLLSELSEEEQKEIKEAEEKLVRTILKYVEEAAK | apparent Kd (screen) | 2.73
E7D (designed binder) SMEEEVDKAAKEYEKKKKEAIEKHLEKLKAKDKEAAERFLKELEEAAKEYAKDEAKTMSEEEAKRRAKKYKEKVLLSELSEEEQKEIKEAEEKLVRTILKYVEEAAK | apparent Kd (screen) | 0.956
L99C (designed binder) SMEEEVEKAAKEYEKKKKEAIEKHLEKLKAKDKEAAERFLKELEEAAKEYAKDEAKTMSEEEAKRRAKKYKEKVLLSELSEEEQKEIKEAEEKLVRTICKYVEEAAK | apparent Kd (screen) | 13.8
A67M (designed binder) SMEEEVEKAAKEYEKKKKEAIEKHLEKLKAKDKEAAERFLKELEEAAKEYAKDEAKTMSEEEAKRRMKKYKEKVLLSELSEEEQKEIKEAEEKLVRTILKYVEEAAK | apparent Kd (screen) | 7.78

Hello, the source for this data is paper PMC12416549, in case you need it.
